Numbers sourced from patent US6407134B1.

Assayed system: HIV protease (Human immunodeficiency virus type 1 group M subtype B, UniProt P04585)
Construct: HIV protease is diluted in the assay buffer to a final enzyme concentration of 12.3 nanomolar, based on a molecular weight of 10,780
Measurement notes: HIV protease enzyme assay (fluorescence, substrate 2-Ile-Nle-Phe(p-NO2)-Gln-ArgNH2)
Format: biochemical
Condition label: HIV protease 12.3 nanomolar, substrate 80 μM, pH 6.4, ambient temperature; read-out: IC50
Readout label: IC50 (nM)
Dear colleague, please return just the value in nM, with no unit written.

Lookup: I have this compound here, CCC(C)[C@H](NC(=O)[C@@H]1CCCN1)C(=O)N[C@@H](Cc1ccccc1)[C@H](O)CN(CC(C)C)S(=O)(=O)c1ccc2c(c1)OCO2 (stereo partly shown) [Entry 2] , and I need its recorded IC50.
Found: 3
